All figures here come from ChEMBL document CHEMBL1147207.

target: Vasopressin V1a receptor (Rattus norvegicus); experiment: Antagonist activity in phenoxybenzamine-treated rat by Pressor assay; conditions: read-out: pA2 (converted)
In this section, each of the compounds is paired with its reported Kb.

Ask: Look up Kb for this compound: CC[C@H](C)[C@@H]1NC(=O)[C@H](Cc2ccc(O)cc2)NC(=O)CCSSC[C@@H](C(=O)N2Cc3ccccc3C[C@H]2C(=O)N[C@@H](CC(C)C)C(=O)NCC(N)=O)NC(=O)[C@H](CC(N)=O)NC(=O)[C@H](CCC(N)=O)NC1=O
Result: > 1 µM

Ask: Reported Kb, compound CC[C@H](C)[C@@H]1NC(=O)[C@H](Cc2ccc(O)cc2)NC(=O)[C@@H](N)CSSC[C@@H](C(=O)N2Cc3ccccc3C[C@@H]2C(=O)N[C@@H](CC(C)C)C(=O)NCC(N)=O)NC(=O)[C@H](CC(N)=O)NC(=O)[C@H](CCC(N)=O)NC1=O : ____
Result: > 1 µM

Ask: Dear colleague, I am looking for the recorded Kb of the following compound: CCOc1ccc(CC2NC(=O)CCSSC[C@@H](C(=O)N3Cc4ccccc4C[C@@H]3C(=O)N[C@@H](CC(C)C)C(=O)NCC(N)=O)NC(=O)[C@H](CC(N)=O)NC(=O)[C@H](CCC(N)=O)NC(=O)[C@H]([C@@H](C)CC)NC2=O)cc1 (stereo in doubt)
Result: > 1 µM

Ask: Any idea what its Kb is? The compound is CCOc1ccc(CC2NC(=O)CCSSC[C@@H](C(=O)N3Cc4ccccc4C[C@H]3C(=O)N[C@@H](CC(C)C)C(=O)NCC(N)=O)NC(=O)[C@H](CC(N)=O)NC(=O)[C@H](CCC(N)=O)NC(=O)[C@H]([C@@H](C)CC)NC2=O)cc1 (stereo in doubt)
Result: > 1 µM

Ask: Fill in the blank: the reported Kb of CCc1ccc(C[C@H]2NC(=O)CCSSC[C@@H](C(=O)NC(C)(C)C(=O)N[C@@H](CC(C)C)C(=O)NCC(N)=O)NC(=O)[C@H](CC(N)=O)NC(=O)[C@H](CCC(N)=O)NC(=O)[C@H]([C@@H](C)CC)NC2=O)cc1 is ____.
Result: 0.316 µM

Ask: Recorded Kb of CCc1ccc(C[C@H]2NC(=O)CCSSC[C@@H](C(=O)N3CCC[C@H]3C(=O)N[C@@H](CC(C)C)C(=O)NCC(N)=O)NC(=O)[C@H](CC(N)=O)NC(=O)[C@H](CCC(N)=O)NC(=O)[C@H]([C@@H](C)CC)NC2=O)cc1 , please.
Result: 0.151 µM

Ask: Returns the measured Kb for the input compound. Input: CC[C@H](C)[C@@H]1NC(=O)[C@H](Cc2ccc(O)cc2)NC(=O)[C@@H](N)CSSC[C@@H](C(=O)N2Cc3ccccc3C[C@H]2C(=O)N[C@@H](CC(C)C)C(=O)NCC(N)=O)NC(=O)[C@H](CC(N)=O)NC(=O)[C@H](CCC(N)=O)NC1=O
Result: > 1 µM
